TEST: NCI Yeast Anticancer Drug Screen. Data for the cln2 rad14 strain (AID 165);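 further: 0% = growth equal to vehicle treated cultures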
CONDITION_LABEL: S. cerevisiae cln2 rad14 strain, at 50.0 µM, hits give high values
This is part of a sample that, as a whole, favours compounds with a hit. Of some 79,000 tested, about 15% had one in any assay.
Class Y: growth inhibition at least 80%. Class N: growth inhibition below 80%.

# COMPOUND, ASSIGNED_CATEGORY
records = [
    ("O/N=C1/CC2CCCc3ccc4cccc1c4c32 (stereo not given)", "N"),
    ("Fc1cccc(C2SCc3nc4ccccc4n32)c1F (stereo not given)", "N"),
    ("Nc1cc(Cl)ccc1C(=O)O", "N"),
    ("Cc1cc(O)c(C=NC(=S)C(N)=S)c(=O)o1", "N"),
    ("CCN(CC)CCOc1ccc(C(=C2CCCCC2)c2ccc(OCCN(CC)CC)cc2)cc1", "N"),
]

[in] Test whether the compound COc1ccc2nc3cc(Cl)ccc3c(NCCCCN(C)C)c2c1 records growth inhibition of 80% or higher.
[out] Y

[in] Could you tell me if the measured growth inhibition of CC(CCOP(=O)(O)OCCC(C)CC(C)(C)C)CC(C)(C)C (stereo not given) reaches 80% or more?
[out] N

[in] Check if growth inhibition >= 80% (inclusive). Item: COc1ccc2c(c1)[n+]([O-])c(S(=O)(=O)c1ccc(C)cc1)c(N)[n+]2[O-]
[out] Y

[in] hey, is growth inhibition for this one >= 80%? O=C(O)C(Cc1ccccc1)N=Cc1ccc(O)cc1 (stereo not given)
[out] N

[in] Decide: growth inhibition of Cc1cc(SCC(=O)c2ccc(Br)cc2)cc(C)[o+]1 >= 80%?
[out] Y

[in] Say whether CC1CCCN(c2cc(N(C)C)c([N+](=O)[O-])cc2F)C1 (stereo not given) shows growth inhibition of 80% or more.
[out] N

[in] Is the recorded value of growth inhibition equal to or greater than 80% for this compound? COc1cc2c(oc(=O)c3cc(C)cc(OC)c32)c2c(C3OC(C)C(O)C(C)(O)C3O)ccc(O)c12 (stereo not given)
[out] Y

[in] API: above_or_equal(metric=growth inhibition, cutoff=80%) for item O=C1CCS(=O)(=O)c2ccccc21
[out] N

[in] // inclusive: growth inhibition at least 80%? input: Brc1cccc[n+]1Cc1cc2ccccc2c2ccccc12
[out] Y

[in] Given the entry CCOC(=O)/C(C#N)=C/c1ccccc1Br , answer whether its growth inhibition meets or surpasses 80%.
[out] N

* * *

Listed below: growth inhibition values for each entry.
TEST: NCI Yeast Anticancer Drug Screen. Data for the rad50 strain (AID 155);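 further: 0% = growth of vehicle-only cultures of the same strain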
CONDITION_LABEL: S. cerevisiae rad50 strain growth inhibition; at 50.0 µM; hits give high values
Compounds without any hit were thinned out: in the full panel of roughly 79,000, 15% have a hit. The source made the active and inactive calls. No stated cut-off is given here; in the data, active means growth inhibition above about 70%; inactive means the rest.

# COMPOUND, growth inhibition
records = [
    ("O=C(c1ccccc1)C(Br)C(Br)c1ccc(Cl)c(Cl)c1 (stereo unspecified)", "-8.65% (inactive)"),
    ("Cc1ccnc(NS(=O)(=O)c2ccc(N=Cc3c4ccccc4nc4cc(Cl)ccc34)cc2)n1", "99.4% (active)"),
    ("CC1(c2ccc3ccccc3c2)C(C#N)(C#N)C1(C#N)C#N", "91.4% (active)"),
]

Note to self: growth inhibition recorded for CC(C)c1c(P(=O)(c2ccccc2)c2ccccc2)n(C)c2ccccc12 was 83.4% (active)

Reported growth inhibition for CCC(=O)OC1=C(Cl)C(=O)c2ccccc2C1=O was 71.8% (active)

The recorded growth inhibition for Cc1ccsc1C(=S)Nc1ccc(Cl)c(/C=N/OC(C)C)c1 is 32% (inactive)

* * *

TEST: NCI Yeast Anticancer Drug Screen. Data for the cln2 rad14 strain (AID 165);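 further: 0% = growth equal to vehicle treated cultures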
CONDITION_LABEL: S. cerevisiae cln2 rad14 strain, at 50.0 µM, hits give high values
About 79,000 compounds went through this panel and 15% of them were active in at least one assay; those are over-represented in the sample as a whole.
MEASUREMENT_NAME: growth inhibition (%)
Field: numeric (%). Do not append units.

Example entries and their recorded answers appear below.
# COMPOUND, OBSERVED_VALUE
data = [
    ("Clc1ccc([O][In]([O]c2ccc(Cl)cn2)[O]c2ccc(Cl)cn2)nc1", 38.9),
    ("S=c1[nH]c2ccc(Br)cc2c(=S)n1-c1ccccc1", 88),
    ("CCC(=O)c1cc2ccccc2c2ccccc12", 9.9),
    ("CCCCCCCCCCCCNC(=O)C[n+]1cccc(C(N)=O)c1", 36.4),
    ("Nc1ccc2c(c1)CCc1ccccc1-2", 50.4),
    ("CCCCCCCCCCCCOc1c(Cl)cc(Cl)c(Cl)c1Cc1c(O)c(Cl)cc(Cl)c1Cl", 97.2),
    ("Cc1ccnc(NS(=O)(=O)c2ccc(N=Cc3c4ccccc4nc4cc(Cl)ccc34)cc2)n1", 99),
    ("Cc1ccc(O)c(C(c2ccc([N+](=O)[O-])cc2)c2cc(C)ccc2O)c1", 89.7),
]

Sample CS(=O)(=O)C(c1nc2nnc(NC(=O)Nc3ccc(Cl)cc3)n2[nH]c1=O)c1nc2nnc(NC(=O)Nc3ccc(Cl)cc3)n2[nH]c1=O ; growth inhibition observed: 30.6

Value of growth inhibition reported for the compound O=c1[nH]n(CCc2ccccn2)c(=O)c(Cl)c1Cl is -6.2

For this compound ( CNc1ccc2c(c1)Cc1ccccc1-2 ), measured growth inhibition is 92.8

growth inhibition recorded for this compound, C1=C(c2ccccc2)CCc2c1ccc1ccccc21 , is 4.35

* * *

# growth inhibition listing for each entry below
TEST: NCI Yeast Anticancer Drug Screen. Data for the mlh1 rad18 strain (AID 175)
CONDITION_LABEL: S. cerevisiae mlh1 rad18 strain growth inhibition; at 50.0 µM; hits give high values
This is part of a sample that, as a whole, favours compounds with a hit. Of some 79,000 tested, about 15% had one in any assay.
# number only, unit % dropped from output

# COMPOUND, MEASUREMENT_NAME, MEASUREMENT_UNIT, OBSERVED_VALUE
data = [
    ("COc1ccc(C(=O)O)c(-c2c(C(=O)O)ccc(OC)c2OC(C)=O)c1", "growth inhibition", "%", 54.6),
    ("COC1/C=C\\OC2(C)Oc3c(C)c(O)c4c(c3C2=O)C2=NC(C)(C)N(c3ccccc3)C2=C(NC(=O)/C(C)=C\\C=C\\C(C)C(O)C(C)C(O)C(C)C(OC(C)=O)C1C)C4=O (stereo not drawn)", "growth inhibition", "%", 51.9),
    ("CCOC(=O)C(CC)(CCc1ccccc1[N+](=O)[O-])C(=O)OCC", "growth inhibition", "%", 60.9),
    ("COc1cccc(/C=C2/Sc3scc(-c4ccccc4)[n+]3C2=O)c1O", "growth inhibition", "%", 94.1),
    ("COC(=O)c1ccccc1C(=O)c1cc(OC)c2c(c1OC)CCCC2", "growth inhibition", "%", 82.9),
    ("O=C1OCCN1/N=C/c1ccc([N+](=O)[O-])o1", "growth inhibition", "%", 88.5),
]

Now turn to the next compound.
The compound listed as BrCc1ccc2ccc3ccc(CBr)nc3c2n1 shows growth inhibition equal to 64.8

* * *

TEST: NCI Yeast Anticancer Drug Screen. Data for the cln2 rad14 strain (AID 165);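 further: 0% = growth equal to vehicle treated cultures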
CONDITION_LABEL: S. cerevisiae cln2 rad14 strain, at 50.0 µM (retest, dose inferred, filed as 5.0), hits give high values
The panel holds about 79,000 compounds, 15% with a hit somewhere; the sample as a whole holds those more often.
MEASUREMENT_NAME: growth inhibition (%)
Note: unit % is implicit; provide only the numeric part.

The reported growth inhibition of the molecule O/N=C(/C[N+]12CN3CN(CN(C3)C1)C2)c1ccc(I)cc1 was 23

Lab note: measured growth inhibition of COc1ccc(N=Nc2ccc3oc(=O)c(C(=O)Nc4ccc(Cl)cc4)cc3c2)cc1 was 98

Kindly note the recorded growth inhibition for O=C(O)c1cc(C(=O)O)c(C(=O)O)cc1C(=O)O.[NH-]C1CCCC1.[NH-]C1CCCC1.[NH-]C1CCCC1.[NH-]C1CCCC1.[Pt+2].[Pt+2] , which is 99

The recorded growth inhibition for Oc1c(Br)cc(Cl)cc1Br is 98

* * *

TEST: NCI Yeast Anticancer Drug Screen. Data for the sgs1 mgt1 strain (AID 161);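 further: 0% = growth of cultures given vehicle only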
CONDITION_LABEL: S. cerevisiae sgs1 mgt1 strain, at 50.0 µM (retest, dose inferred, filed as 5.0)
Procedure: Growth inhibition of yeast strains with defined genetic alterations is measured as a screen for potential anti-cancer activity. Selected strains with alterations in DNA damage repair or cell cycle control were exposed to compounds and growth inhibition was measured relative to vehicle treated controls. The strain used in this assay is sgs1 mgt1
This is part of a sample that, as a whole, favours compounds with a hit. Of some 79,000 tested, about 15% had one in any assay. Activity calls are given as the source filed them. Cut-off read from the data, not from the text of the source: active = growth inhibition above about 70%; inactive = the rest.
Result category, one only: active, inactive

[in] Dear colleague, could you share the recorded outcome for Fc1cccc(CSc2ncnc3c2ncn3C2CCCS2)c1 (stereo unspecified) when you have a moment?
[out] active

[in] Could you please tell me the result logged for O=C(/C=C\c1ccccc1)/C=C/c1ccccc1 in this assay?
[out] inactive

[in] Recorded call for N#CCc1nc(Cl)cc(Cl)n1 ?
[out] inactive

[in] Which result was noted for this molecule in the test: CNC(=O)OCCC(OC(=O)NC)C1CCC2C3CC=C4CC(OC(=O)NC)CCC4(C)C3CCC12C (stereo unspecified)
[out] active

[in] Dear colleague, could you share the recorded outcome for CC1(C)CC(N(C(=O)/C=C/c2ccc([N+](=O)[O-])o2)C2CCCCC2)CC(C)(C)N1 when you have a moment?
[out] active

[in] Hi, do you know how O=C(C[n+]1ccccc1)c1ccc2ccc3ccc(Cl)cc3c2c1 came out in this test?
[out] inactive

Every entry's value here was drawn from PubChem BioAssay (NCI).
